Reference source: patent US20020137929A1

- System: ZEAMX (Corn, Field)
- EXPERIMENT DESCRIPTION: Preemergence herbicidal evaluation
- Assay type: in vivo, Zea mays
- CONDITION SET: rate 0.2500 kg/ha; rated 4-5 weeks after treatment; rating scale 0-9
RECORDED METRIC: Preemergence herbicidal rating ZEAMX

[[record]]
compound = "CSCCN1C(=O)CSC1=Nc1cc(-n2c(=O)cc(C(F)(F)F)n(C)c2=O)c(F)cc1Cl [Compound 157]"
result = 1.0

[[record]]
compound = "COCCN1C(=O)CSC1=Nc1cc(-n2c(=O)cc(C(F)(F)F)n(C)c2=O)c(F)cc1Cl [Compound 155]"
result = 2.0

[[record]]
compound = "Cn1c(C(F)(F)F)cc(=O)n(-c2cc(N=C3SCC(=O)N3C3CC3)c(Cl)cc2F)c1=O [Compound 152]"
result = 2.0

[[record]]
compound = "Cn1c(C(F)(F)F)cc(=O)n(-c2cc(N=C3SCC(=O)N3Cc3ccccc3Cl)c(Cl)cc2F)c1=O [Compound 143]"
result = 0.0

[[record]]
compound = "COc1cccc(CN2C(=O)CSC2=Nc2cc(-n3c(=O)cc(C(F)(F)F)n(C)c3=O)c(F)cc2Cl)c1 [Compound 137]"
result = 0.0

[[record]]
compound = "COc1ccc(CN2C(=O)CSC2=Nc2cc(-n3c(=O)cc(C(F)(F)F)n(C)c3=O)c(F)cc2Cl)c(OC)c1 [Compound 139]"
result = 1.0

[[record]]
compound = "Cn1c(C(F)(F)F)cc(=O)n(-c2cc(N=C3SCC(=O)N3Cc3cccc(C(F)(F)F)c3)c(Cl)cc2F)c1=O [Compound 142]"
result = 2.0

[[record]]
compound = "Cn1c(C(F)(F)F)cc(=O)n(-c2cc(N=C3SCC(=O)N3Cc3ccc(Br)cc3)c(Cl)cc2F)c1=O [Compound 148]"
result = 1.0

